Biological target: 5-hydroxytryptamine receptor 2C (Homo sapiens, UniProt P28335)
Sequence (P28335 whole entry): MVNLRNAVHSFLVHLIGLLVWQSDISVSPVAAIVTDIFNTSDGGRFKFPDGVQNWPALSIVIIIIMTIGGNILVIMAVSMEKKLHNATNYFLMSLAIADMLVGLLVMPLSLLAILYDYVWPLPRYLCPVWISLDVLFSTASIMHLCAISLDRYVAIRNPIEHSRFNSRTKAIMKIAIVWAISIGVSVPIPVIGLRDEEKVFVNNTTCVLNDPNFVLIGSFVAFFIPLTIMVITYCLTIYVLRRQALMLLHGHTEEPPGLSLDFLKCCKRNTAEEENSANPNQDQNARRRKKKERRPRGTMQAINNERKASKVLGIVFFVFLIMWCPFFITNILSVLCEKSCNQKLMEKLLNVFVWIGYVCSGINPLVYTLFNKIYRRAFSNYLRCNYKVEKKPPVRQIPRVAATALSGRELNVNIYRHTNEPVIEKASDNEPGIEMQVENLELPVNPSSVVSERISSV
Experimental readout: pKi
pKi here is simply -log10 of the concentration when that concentration is written in mol/L.

Could you share which pKi value was measured for "Cc1ccc2c(OCCN3CCN(Cc4cccc5cccnc45)CC3)cccc2n1" ?
5.50

###

# 5-hydroxytryptamine receptor 1D (Homo sapiens, UniProt P28221): Ki values follow
# Sequence (P28221 whole entry): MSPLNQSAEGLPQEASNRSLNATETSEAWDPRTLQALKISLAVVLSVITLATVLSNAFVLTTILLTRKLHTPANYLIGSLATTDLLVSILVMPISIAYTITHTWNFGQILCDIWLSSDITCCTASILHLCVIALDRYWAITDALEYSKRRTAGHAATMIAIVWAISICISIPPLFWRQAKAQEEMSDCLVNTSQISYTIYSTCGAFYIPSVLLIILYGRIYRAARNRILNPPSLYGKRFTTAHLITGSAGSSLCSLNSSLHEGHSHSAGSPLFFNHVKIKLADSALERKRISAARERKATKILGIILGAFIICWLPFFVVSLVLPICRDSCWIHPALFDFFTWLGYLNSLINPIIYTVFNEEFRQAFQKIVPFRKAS
Expressed in nM, but write only the number.

> print(dat)
                        structure.as.smiles  recorded.measurement
1  COc1ccc(CN2CCN(CCOc3cccc4nc(C)ccc34)CC2)cc1[N+](=O)[O-]                    20

Missing value: Ki, 5-hydroxytryptamine receptor 1D (Homo sapiens, UniProt P28221), entry "Cc1ccc2c(OCCN3CCN(Cc4cccc5cc[nH]c45)CC3)cccc2n1" . Fill in?
3.16

Return Ki measured with 5-hydroxytryptamine receptor 1D (Homo sapiens, UniProt P28221) given this compound: "Cc1ccc2c(OCCN3CCN(Cc4cccc5ncccc45)CC3)cccc2n1"
2.51

Notebook entry, 5-hydroxytryptamine receptor 1D (Homo sapiens, UniProt P28221) assay: Ki of "Cc1ccc2c(OCCN3CCN(Cc4ccc(C)c([N+](=O)[O-])c4)CC3)cccc2n1" = ?
2

Report Ki for "Cc1ccc2c(OCCN3CCN(Cc4ccc(O)c(N)c4)CC3)cccc2n1" tested on 5-hydroxytryptamine receptor 1D (Homo sapiens, UniProt P28221).
1.58

Query for 5-hydroxytryptamine receptor 1D (Homo sapiens, UniProt P28221): what Ki does the record show for "Cc1ccc2c(OCCN3CCN(Cc4cccc5[nH]cnc45)CC3)cccc2n1" ?
0.251

Data credit: ChEMBL document CHEMBL1139504
